- Tested on: 786-0 renal
- method description: NCI-60 one-dose screen, 48 h
- protocol conditions: 10 µM unless noted
This is part of a sample that, as a whole, favours compounds with a hit. Of some 83,000 tested, about 20% had one in any assay. Calls of active or inactive are those of the source. How the source made its calls: active means growth percent below 10; inactive means the rest.
Log the outcome using a class from active, inactive

Name the outcome recorded for COc1cccc(/C=N/NC(=O)c2ccccc2Nc2ccnc(C(F)(F)F)c2)c1O in the assay.
active

Now try CC(=O)Nc1ccc(S(=O)(=O)Nc2cccc(-c3nc(-c4ccc(NC(=O)c5cccnc5)cc4Cl)no3)c2)cc1 .
inactive

Now the molecule COc1cc(/C=C/C(=O)c2ccc(O)c(CN3CCN(c4cc5c(cc4F)c(=O)c(C(=O)O)cn5C4CC4)CC3)c2)cc(OC)c1OC
inactive

Now consider O=C1C=CC(=O)N1c1ccc2c(c1)Cc1cc(F)ccc1-2 and answer again.
inactive

What about CN1CCN(CCCOc2cccc3nc(Nc4cc(Cl)cc(Cl)c4)ccc23)CC1 ?
inactive

Entry to check: COc1ccc2c(c1)C(=O)/C(=C/c1ccccn1)CC2
inactive

Next molecule: O=C(O)c1c(=O)cccc2ssc12
active

Input CN(C)CCCNc1c2ccccc2nc2ccccc12
inactive

Quick one: CCOc1ccc(C(C)=O)cc1NC(=O)c1cccc(-c2nnn(CC)n2)c1
inactive

Can you handle N#Cc1nnn(-c2ccc(S(N)(=O)=O)cc2)c1NCC(=O)c1ccccc1 next?
inactive

###

- Tested on: U251 CNS
- method description: NCI-60 one-dose screen, 48 h
- protocol conditions: 10 µM unless noted
This is part of a sample that, as a whole, favours compounds with a hit. Of some 83,000 tested, about 20% had one in any assay. Calls of active or inactive are those of the source. The calls were made as follows: active = growth percent below 10; inactive = the rest.
Respond using exactly one of the listed classes: active, inactive

Give the logged outcome of this assay for the following compound: C=CCSSC1N=CNc2nc[nH]c21 (stereo not given)
inactive

What do we get for Cn1nc(N)c2cc([C@@H]3Nc4ccc5[nH]ncc5c4[C@H]4C5CCC(C5)[C@@H]34)ccc21 (stereo not given in full) ?
inactive

// repeat for O=C1C=C(O)C(=O)C(CC2=C(O)C(=O)C=C(O)C2=O)=C1O and report
inactive

What about this compound? C=C1C(=O)O[C@H]2[C@H]1CC/C(C=Nc1ccc(C(F)(F)F)cc1N)=C\CC[C@@]1(C)O[C@@H]21
inactive

Try this compound too: COc1ccc2c(c1)c(-c1nonc1-c1cn(C)c3ccccc13)cn2C
inactive

Likewise for NC1=C(Cl)C(=O)c2ccc(S(N)(=O)=O)cc2C1=O ?
active

How about this compound: COc1cc2c(cc1-c1c(C)noc1C)ncc1nc(C3CCOCC3)n([C@@H](C)COC(F)F)c12
inactive

And what about the compound CCCOc1ccc2nc(NC(=O)OC)[nH]c2c1 ?
inactive

// query: Cc1cc(C)nc(SC2=C(Nc3ccc(C)c(Cl)c3)C(=O)N(Cc3ccccc3)C2=O)n1
inactive

Again, but for Nc1nc2ncc(CCNc3ccc(C(=O)O)cc3)nc2c(=O)[nH]1
inactive

###

- Tested on: SF-295 CNS
- method description: NCI-60 one-dose screen, 48 h (100 = growth as untreated, 0 = no growth, -100 = all killed)
- protocol conditions: 10 µM unless noted
The panel holds about 83,000 compounds, 20% with a hit somewhere; the sample as a whole holds those more often.
// classify: if (growth < 50%) yes (1) else no (0)

Just wondering, is growth of CCCCCC(=O)Oc1ccc(/C(=C(\C)c2ccc(OC)cc2)c2ccc(OCCN3CCCCC3)cc2)cc1 below 50%?
yes (1)

Entry to check: NC(=NCCCOc1ccc(Cl)cc1)Nc1ccc(C(F)(F)F)cc1
yes (1)

Next compound: Cc1cc(N2CCN(c3ccnc4cc(Cl)ccc34)CC2)nc(N2CCOCC2)n1
no (0)

Would you mind doing Cc1[nH]c(-c2ccc3cc[nH]c3c2)c2c1C(=O)CCCC2 as well?
yes (1)

###

- Test system: SF-295 CNS
- method description: NCI-60 one-dose screen, 48 h
- protocol conditions: 10 µM unless noted
The panel holds about 83,000 compounds, 20% with a hit somewhere; the sample as a whole holds those more often. Active and inactive are the calls of the source. How the source made its calls: active means growth percent below 10; inactive means the rest.
// classify into 1 (yes) (active), 0 (no) (inactive)

Please let me know the test result on file for C=CCSSC1N=CNc2nc[nH]c21 (stereo unspecified) .
0 (no)

Same thing, different compound: Nc1nc2ccc3[nH]ncc3c2c2c1CCCC2
0 (no)

Same read-out for C#Cc1cccc(NC(=O)c2ccccc2NC(=O)C=C)c1 ?
0 (no)

Subsequent entry: O=C1/C(=C/c2ccc(Cl)cc2)SC(=S)N1CCc1ccc(O)cc1
0 (no)

Try this compound next: C(=C\c1nccc2c1[nH]c1ccccc12)/c1ccccc1
1 (yes)

Cc1nn(-c2ccc(F)cc2)c2ncnc(Nc3ccc(NC(=O)Nc4ccc(Cl)c(C(F)(F)F)c4)cc3)c12 , same question.
1 (yes)

Another compound to look at: COc1ccc2c(c1)C(=O)/C(=C/c1ccccn1)CC2
0 (no)

Cool, now O=C1/C(=C/N2N=C(c3ccc4ccccc4c3)CC2c2ccccc2O)SC(=S)N1c1cccnc1 (stereo unspecified)
0 (no)

Entry O=C1CC[C@H](c2ccc(O)c3c2C(=O)[C@@H]2O[C@@H]2C3=O)c2cccc(O)c21 please
0 (no)

Repeat with c1ccc(-c2cc3n4c(-c5ccccc5)nn(-c5ccccc5)c4cnc-3n2)cc1
0 (no)

Next record, please: COc1nc2c(c(=O)n1C)CN(Cc1ccccc1)C=N2
0 (no)

###

For each of the compounds below, state its growth.
- System: MDA-MB-231 breast
- method description: NCI-60 one-dose screen, 48 h (100 = growth as untreated, 0 = no growth, -100 = all killed)
- protocol conditions: 10 µM unless noted
- Experimental: Cells are grown in 96 well plates and exposed to the test compound for 48 hours. Compounds are tested at a single concentration, which is 10^-5 M for most compounds. The reported endpoint is percent growth (GI% or GIPRCNT), where numbers from 0 - 100% represent growth inhibition, and numbers from -100% - 0 represent cell death. For example, a value of 40 represents 60% growth inhibition. A value of 0 means no net growth occurred over the course of the experiment. […]
About 83,000 compounds went through this panel and 20% of them were active in at least one assay; those are over-represented in the sample as a whole.
Just the number in %, nothing appended.

Field: growth (MDA-MB-231 breast). Entry: C/C1=C\CC[C@@]2(C)O[C@H]2[C@H]2OC(=O)C(CN3CCN(CC4C(=O)O[C@H]5[C@H]4CC/C(C)=C/CC[C@@]4(C)O[C@@H]54)CC3)[C@@H]2CC1 (stereo not given in full)
87.1

Now the same for C=CC(=O)Nc1cccc(-c2nc(SC)nc(NCCc3ccc(OC)c(OC)c3)c2C#N)c1
64.1

Another compound to check: Nc1nc2ccc3[nH]ncc3c2c2c1CCCC2
4

Input CCC([N+](=O)[O-])S(=O)(=O)c1ccc(C)cc1 (stereo not given)
103

Do the same for O=C1Nc2cc(-c3ccc(O)cc3)ccc2/C1=C/c1ccc[nH]1 please
13.2

Another compound to check: c1ccc(CCNc2ncnc3[nH]ncc23)cc1
93.2

// same read-out, input: COc1ccc(CN2c3ccccc3Oc3ccccc32)cc1O
56.6

Likewise for Cc1cc(N2CCCCCC2)nc(NC2CCCC(Nc3ccnc4cc(Cl)ccc34)C2)n1 (stereo not given) ?
-88.5

Entry NC(=NCCCOc1ccc(Cl)cc1)Nc1ccc(Cl)cc1 please
-6.18

Try this compound next: COc1ccc(-n2nc(C)c3c(Nc4ccc(NC(=O)Nc5c(Cl)cccc5Cl)cc4)ncnc32)cc1
30.6

###

- Test system: TK-10 renal
- method description: NCI-60 one-dose screen, 48 h
- protocol conditions: 10 µM unless noted
Compounds without any hit were thinned out: in the full panel of roughly 83,000, 20% have a hit. The source made the active and inactive calls. How the source made its calls: active means growth percent below 10; inactive means the rest.
Your response should consist of one outcome taken from 1 (yes) for active, 0 (no) for inactive

In this assay, the call recorded for Cc1ccc2c(C(C[N+](=O)[O-])c3ccccc3)c(-c3ccccc3)[nH]c2c1 (centres undefined) was what?
0 (no)

Would you kindly repeat that for CC(C)(C)CC(C)(C)c1ccc(OCCOCC[N+](C)(C)Cc2ccccc2)cc1 ?
1 (yes)

Same thing, different compound: C=C1c2nc3ccccc3n2C=C(c2cccc(Cl)c2)N1Cc1ccc(OC)cc1
0 (no)

Another compound to look at: NC(=O)c1cc(I)ccc1NC(=O)/C=C/c1ccccc1Cl
0 (no)

Same again, this time with Cc1cc(N2CCOCC2)nc(N[C@@H]2CCC[C@H](Nc3ccnc4cc(Cl)ccc34)C2)n1
1 (yes)

Now the compound COc1ccc2cc(-c3nn(-c4ccc(C(=O)O)cc4)cc3CO)ccc2c1
0 (no)

Quick one: COc1cc2c(cc1-c1c(C)noc1C)ncc1nc(C3CCOCC3)n([C@H](C)COC(F)F)c12
0 (no)

Next entry: COc1ccc(/C=C/C(=O)c2ccc(O)c(CN3CCN(c4cc5c(cc4F)c(=O)c(C(=O)O)cn5C4CC4)CC3)c2)cc1
0 (no)

Now give it for CN(C)CCN1C(=O)c2cccc3c(N)ccc(c23)C1=O too.
0 (no)
